- TEST_DETAILS: RP, Waters CORTECS UPLC C18, 100 × 2.1 mm, 1.6 µm, 40 °C, 0.4 mL/min, estimated dead time 0.55 min; A: water + 0.1% formic acid, pH 3; B: acetonitrile + 0.1% formic acid, pH 3; gradient (min/%B) 0/5 1.12/5 6.41/99.5 10.01/99.5
- CONDITION_LABEL: stereoisomer not certain
condition met if LC retention time is below 4 min. condition not met if not; exact matches included in condition not met.

CCN(CC)c1nc(C)cc(OP(=S)(OC)OC)n1 | condition not met
C[Si](Cn1cncn1)(c1ccc(F)cc1)c1ccc(F)cc1 | condition not met
CNC(=O)CSP(=S)(OC)OC [Dimethoate] | condition met
CC1C(c2ccc(Cl)cc2)SC(=O)N1C(=O)NC1CCCCC1 (centres undefined) | condition not met
O=C(O)C(O)Cc1c[nH]c2ccccc12 (racemic) | condition met

input: Take the compound CSCC1OC(n2cnc3c(N)ncnc32)C(O)C1O (centres undefined) and say whether its LC retention time is less than 4 min.
output: condition met

input: Confirm or reject: LC retention time of CC(CCC(=O)NCC(=O)O)C1CCC2C3CCC4CC(O)CCC4(C)C3CC(O)C12C (centres undefined) lies strictly below 4 min
output: condition not met

input: A record lists Fc1ccc(C2(Cn3cncn3)OC2c2ccccc2Cl)cc1 (centres undefined) . Is its LC retention time below 4 min?
output: condition not met

input: Take the compound CC1(O)CCOC(=O)C1 (racemic) [(±)-Mevalonolactone] and say whether its LC retention time is less than 4 min.
output: condition met

input: For "CON=C(C1=NOCCO1)c1ccccc1Oc1ncnc(Oc2ccccc2Cl)c1F" , is the recorded LC retention time below the cut-off of 4 min?
output: condition not met

###

- TEST_DETAILS: RP, Waters CORTECS UPLC C18, 100 × 2.1 mm, 1.6 µm, 40 °C, 0.4 mL/min, estimated dead time 0.55 min; A: water + 0.1% formic acid, pH 3; B: acetonitrile + 0.1% formic acid, pH 3; gradient (min/%B) 0/5 1.12/5 6.41/99.5 10.01/99.5
- CONDITION_LABEL: stereoisomer not certain
ENDPOINT_LABEL: LC retention time
Could you write the number and then its unit?

Would you please look over these solved cases?
CC(C)=CCCC(C)C1CCC2C3CC=C4CC(O)CCC4(C)C3CCC12C (centres undefined) | 6.81 min
CCCCCC=CCC=CCC=CCC=CCCCC(=O)OC(CC(=O)[O-])C[N+](C)(C)C (centres undefined) | 5.35 min
O=C(Nc1ccccc1)Nc1ccnc(Cl)c1 | 4.19 min

Turning to the following compound.
input: Give reported LC retention time value for CC1COC(Cn2cncn2)(c2ccc(Oc3ccc(Cl)cc3)cc2Cl)O1 (centres undefined)
output: 5.46 min

###

The reader will find reported LC retention time values listed item by item below.
- TEST_DETAILS: RP, Waters CORTECS UPLC C18, 100 × 2.1 mm, 1.6 µm, 40 °C, 0.4 mL/min, estimated dead time 0.55 min; A: water + 0.1% formic acid, pH 3; B: acetonitrile + 0.1% formic acid, pH 3; gradient (min/%B) 0/5 1.12/5 6.41/99.5 10.01/99.5
- CONDITION_LABEL: stereoisomer not certain
API: value field is a number in min; no unit string.

Solved entries:
Cc1c(C)c2c(c(C)c1O)CCC(C)(CCCC(C)CCCC(C)CCCC(C)C)O2 (stereo not drawn) | 5.92
CCOC(=O)OC1=C(c2cc(C)ccc2C)C(=O)NC12CCC(OC)CC2 (stereo not drawn) | 4.8
CCON=C(CC)C1=C(O)CC(c2c(C)cc(C)cc2C)CC1=O (stereo not drawn) | 6.22

Attention now shifts to the item below.
input: Identify LC retention time associated with the molecule "O=C1CC[C@@H](C(=O)O)N1"
output: 0.71
